The measurements presented in this section are drawn from ChEMBL document CHEMBL5108009.

Biological target: 5-hydroxytryptamine receptor 1A (Homo sapiens)
Sequence (P08908 whole entry): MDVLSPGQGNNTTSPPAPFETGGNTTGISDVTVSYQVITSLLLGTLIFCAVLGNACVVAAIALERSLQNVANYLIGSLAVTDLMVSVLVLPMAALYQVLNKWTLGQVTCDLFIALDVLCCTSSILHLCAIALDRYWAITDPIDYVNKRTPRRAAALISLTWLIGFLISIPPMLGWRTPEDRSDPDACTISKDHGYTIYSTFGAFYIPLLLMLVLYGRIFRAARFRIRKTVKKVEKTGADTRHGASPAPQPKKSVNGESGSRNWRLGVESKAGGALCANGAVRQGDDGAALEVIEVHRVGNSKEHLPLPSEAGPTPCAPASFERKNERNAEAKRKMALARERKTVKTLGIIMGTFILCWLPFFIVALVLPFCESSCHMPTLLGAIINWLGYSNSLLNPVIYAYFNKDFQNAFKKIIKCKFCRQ
Test: Binding affinity to human recombinant 5-HT1A expressed in CHO cells assessed as inhibition constant
Type: cell-based
Recorded Ki for the following molecules
Output spec: scalar in nM, unitless text.

Request: Dear colleague, I am looking for the recorded Ki of the following molecule: COc1ccccc1N1CCN(CCC[C@H]2CCCN2S(=O)(=O)c2ccccc2F)CC1
Response: 4.1

Attention now shifts to the item below.
Request: Dear colleague, I am looking for the recorded Ki of the following molecule: COc1ccccc1N1CCN(CCC[C@H]2CCCN2S(=O)(=O)c2ccc(F)cc2)CC1
Response: 6.8

----------
Biological target: Serotonin 3 (5-HT3) receptor
Assay: Binding affinity to 5-HT3 receptor (unknown origin) assessed as inhibition constant
Endpoint label: pKi
Here pKi is given on a logarithmic scale as minus log10 of the concentration in mol/L.

Request: Dear colleague, I am looking for the recorded pKi of the following compound: c1ccc(CN2CCN(c3nc4ccsc4n4cccc34)CC2)cc1
Response: 9.00
